The measured values listed here are drawn from ChEMBL document CHEMBL1146056.

Target System: Human immunodeficiency virus type 1 protease (Human immunodeficiency virus 1)
The label is true for Ki below 0.01 µM and false for Ki equal to or exceeding 0.01 µM.

| Smiles Representation | Assigned Label |
| --- | --- |
| COC(=O)N[C@H](C(=O)NN(Cc1cccc(/C=C/c2ccccc2)c1)C[C@@](O)(Cc1ccccc1)C(=O)N[C@H]1c2ccccc2C[C@H]1O)C(C)(C)C | false |
| COC(=O)N[C@H](C(=O)NN(Cc1cccc(C#Cc2ccccc2)c1)C[C@@](O)(Cc1ccccc1)C(=O)N[C@H]1c2ccccc2C[C@H]1O)C(C)(C)C | false |
| COC(=O)N[C@H](C(=O)NN(Cc1cccc(-c2ccccc2)c1)C[C@@](O)(Cc1ccccc1)C(=O)N[C@H]1c2ccccc2C[C@H]1O)C(C)(C)C | false |
| COC(=O)N[C@H](C(=O)NN(Cc1ccc(C#Cc2cccnc2)cc1)C[C@@](O)(Cc1ccccc1)C(=O)N[C@H]1c2ccccc2C[C@H]1O)C(C)(C)C | true |
| COC(=O)N[C@H](C(=O)NN(Cc1cccc(-c2ccccn2)c1)C[C@@](O)(Cc1ccccc1)C(=O)N[C@H]1c2ccccc2C[C@H]1O)C(C)(C)C | false |
| COC(=O)N[C@H](C(=O)NN(Cc1ccc(-c2c(C)noc2C)cc1)C[C@@](O)(Cc1ccccc1)C(=O)N[C@H]1c2ccccc2C[C@H]1O)C(C)(C)C | true |
